Hey, just so you know, these numbers are from ChEMBL document CHEMBL1781932.

test system: Enterobacter cloacae; experiment: Antimicrobial activity against tetracycline-susceptible Enterobacter cloacae isolate 108 by CLSI dilution method; assay type: functional
MEASURED_PROPERTY: MIC (µg/mL)
Expressed in µg/mL, but write only the number.

Task item: Which MIC value belongs to "COc1c2c(c(O)c3cc(CN4CCCC4)ccc13)C(=O)C1=C(O)[C@]3(O)C(=O)C(C(N)=O)=C(O)[C@@H](N(C)C)[C@@H]3C[C@@H]1C2" ?
Reply: 4

Task item: Same question for "CN(C)[C@@H]1C(O)=C(C(N)=O)C(=O)[C@@]2(O)C(O)=C3C(=O)c4c(cc5ccc(CN6CC(O)C6)cc5c4O)C[C@H]3C[C@@H]12" please.
Reply: 2

Task item: Entry "CNCc1ccc2cc3c(c(O)c2c1)C(=O)C1=C(O)[C@]2(O)C(=O)C(C(N)=O)=C(O)[C@@H](N(C)C)[C@@H]2C[C@@H]1C3" please
Reply: 2

Task item: Consider next the compound "COc1c2c(c(O)c3cc(CN4CCC4)ccc13)C(=O)C1=C(O)[C@]3(O)C(=O)C(C(N)=O)=C(O)[C@@H](N(C)C)[C@@H]3C[C@@H]1C2" in the same way.
Reply: 1

Task item: // repeat for "CNc1c2c(c(O)c3cc(CN4CCC4)ccc13)C(=O)C1=C(O)[C@]3(O)C(=O)C(C(N)=O)=C(O)[C@@H](N(C)C)[C@@H]3C[C@@H]1C2" and report
Reply: 32

Task item: Also, "COCCNCc1ccc2cc3c(c(O)c2c1)C(=O)C1=C(O)[C@]2(O)C(=O)C(C(N)=O)=C(O)[C@@H](N(C)C)[C@@H]2C[C@@H]1C3" please.
Reply: 2

Task item: Try this compound next: "COC1CN(Cc2ccc3cc4c(c(O)c3c2)C(=O)C2=C(O)[C@]3(O)C(=O)C(C(N)=O)=C(O)[C@@H](N(C)C)[C@@H]3C[C@@H]2C4)C1"
Reply: 8

====

Please respond with reported MIC for every item in the list.
tested on: Streptococcus pneumoniae; assay: Antimicrobial activity against tetracycline-resistant Streptococcus pneumoniae isolate 160 harboring tetM gene by CLSI dilution method; assay type: functional
The answer is to be given in µg/mL; state only the numeric part.

Task item: If you can, please state the reported MIC value of "COc1c2c(c(O)c3cc(CNC4CC4)ccc13)C(=O)C1=C(O)[C@]3(O)C(=O)C(C(N)=O)=C(O)[C@@H](N(C)C)[C@@H]3C[C@@H]1C2" .
Reply: 0.125

Task item: Now consider "CCCNCc1ccc2c(OC)c3c(c(O)c2c1)C(=O)C1=C(O)[C@]2(O)C(=O)C(C(N)=O)=C(O)[C@@H](N(C)C)[C@@H]2C[C@@H]1C3" and answer again.
Reply: 0.125

Task item: And what about the compound "CN(C)[C@@H]1C(O)=C(C(N)=O)C(=O)[C@@]2(O)C(O)=C3C(=O)c4c(cc5ccc(CN6CCCC6)cc5c4O)C[C@H]3C[C@@H]12" ?
Reply: 0.125

Task item: For "COc1c2c(c(O)c3cc(CNCC(C)C)ccc13)C(=O)C1=C(O)[C@]3(O)C(=O)C(C(N)=O)=C(O)[C@@H](N(C)C)[C@@H]3C[C@@H]1C2" then?
Reply: 0.125

Task item: Can you check "COc1c2c(c(O)c3cc(CN4CCCC4)ccc13)C(=O)C1=C(O)[C@]3(O)C(=O)C(C(N)=O)=C(O)[C@@H](N(C)C)[C@@H]3C[C@@H]1C2" next?
Reply: 0.25

====

test system: Enterobacter cloacae; experiment: Antimicrobial activity against tetracycline-susceptible Enterobacter cloacae isolate 108 by CLSI dilution method; type: functional
Provide the recorded MIC for the entries that follow.

Task item: Consider the compound shown here: "CN(C)[C@@H]1C(O)=C(C(N)=O)C(=O)[C@@]2(O)C(O)=C3C(=O)c4c(cc5c(CNC6CC6)cccc5c4O)C[C@H]3C[C@@H]12" What is its recorded MIC?
Reply: > 32 µg/mL

Task item: Then "CN(C)[C@@H]1C(O)=C(C(N)=O)C(=O)[C@@]2(O)C(O)=C3C(=O)c4c(c(Cl)c5ccc(F)cc5c4O)C[C@H]3C[C@@H]12" ?
Reply: > 32 µg/mL

Task item: Now give it for "CCCNc1c2c(c(O)c3cc(CN4CCC4)ccc13)C(=O)C1=C(O)[C@]3(O)C(=O)C(C(N)=O)=C(O)[C@@H](N(C)C)[C@@H]3C[C@@H]1C2" too.
Reply: > 32 µg/mL

Task item: What would you report for "CN(C)c1cc(NC(=O)CNC(C)(C)C)c(O)c2c1C[C@H]1C[C@H]3[C@H](N(C)C)C(O)=C(C(N)=O)C(=O)[C@@]3(O)C(O)=C1C2=O" ?
Reply: 0.25 µg/mL

Task item: Can you handle "CN(C)c1ccc(-c2ccc3cc4c(c(O)c3c2)C(=O)C2=C(O)[C@]3(O)C(=O)C(C(N)=O)=C(O)[C@@H](N(C)C)[C@@H]3C[C@@H]2C4)cc1" next?
Reply: > 32 µg/mL

Task item: Please do the same for "COc1c2c(c(O)c3cc(CNC4CC4)ccc13)C(=O)C1=C(O)[C@]3(O)C(=O)C(C(N)=O)=C(O)[C@@H](N(C)C)[C@@H]3C[C@@H]1C2" as well.
Reply: 4 µg/mL

====

test system: Pseudomonas aeruginosa; test: Antimicrobial activity against tetracycline-susceptible Pseudomonas aeruginosa isolate 111 by CLSI dilution method; format: functional
Give MIC for every item shown.

Task item: For the compound shown here, "CN(C)Cc1ccc2cc3c(c(O)c2c1)C(=O)C1=C(O)[C@]2(O)C(=O)C(C(N)=O)=C(O)[C@@H](N(C)C)[C@@H]2C[C@@H]1C3" , give the reported MIC.
Reply: > 32 µg/mL

Task item: Check "CN(C)[C@@H]1C(O)=C(C(N)=O)C(=O)[C@@]2(O)C(O)=C3C(=O)c4c(cc5c(CNC6CC6)cccc5c4O)C[C@H]3C[C@@H]12" too.
Reply: > 32 µg/mL

Task item: How about "CN(C)[C@@H]1C(O)=C(C(N)=O)C(=O)[C@@]2(O)C(O)=C3C(=O)c4c(cc5ccc(CN6CCCC6)cc5c4O)C[C@H]3C[C@@H]12" ?
Reply: > 32 µg/mL

Task item: Next compound: "COc1c2c(c(O)c3cc(F)ccc13)C(=O)C1=C(O)[C@]3(O)C(=O)C(C(N)=O)=C(O)[C@@H](N(C)C)[C@@H]3C[C@@H]1C2"
Reply: > 32 µg/mL

Task item: Please answer likewise for "CN(C)[C@@H]1C(O)=C(C(N)=O)C(=O)[C@@]2(O)C(O)=C3C(=O)c4c(c(F)c5ccc(CN6CCCC6)cc5c4O)C[C@H]3C[C@@H]12"
Reply: 32 µg/mL

Task item: Request: "COc1c2c(c(O)c3cc(CNCC(C)C)ccc13)C(=O)C1=C(O)[C@]3(O)C(=O)C(C(N)=O)=C(O)[C@@H](N(C)C)[C@@H]3C[C@@H]1C2"
Reply: 16 µg/mL

Task item: Repeat for the following compound: "COCCNCc1ccc2c(N(C)C)c3c(c(O)c2c1)C(=O)C1=C(O)[C@]2(O)C(=O)C(C(N)=O)=C(O)[C@@H](N(C)C)[C@@H]2C[C@@H]1C3"
Reply: > 32 µg/mL

Task item: # repeat for "COc1c2c(c(O)c3cc(CNC4CC4)ccc13)C(=O)C1=C(O)[C@]3(O)C(=O)C(C(N)=O)=C(O)[C@@H](N(C)C)[C@@H]3C[C@@H]1C2"
Reply: 16 µg/mL

Task item: Query "CN(C)[C@@H]1C(O)=C(C(N)=O)C(=O)[C@@]2(O)C(O)=C3C(=O)c4c(c(F)c5ccc(CN6CCC6)cc5c4O)C[C@H]3C[C@@H]12" next
Reply: 32 µg/mL

Task item: Try the compound "CCCNCc1ccc2c(OC)c3c(c(O)c2c1)C(=O)C1=C(O)[C@]2(O)C(=O)C(C(N)=O)=C(O)[C@@H](N(C)C)[C@@H]2C[C@@H]1C3"
Reply: 16 µg/mL

Task item: Repeat with "CN(C)[C@@H]1C(O)=C(C(N)=O)C(=O)[C@@]2(O)C(O)=C3C(=O)c4c(c(F)c5ccc(CNC6CC6)cc5c4O)C[C@H]3C[C@@H]12"
Reply: > 32 µg/mL

Task item: // repeat for "COc1cccc2c(O)c3c(cc12)C[C@H]1C[C@H]2[C@H](N(C)C)C(O)=C(C(N)=O)C(=O)[C@@]2(O)C(O)=C1C3=O" and report
Reply: > 32 µg/mL

Task item: Can you handle "CN(C)[C@@H]1C(O)=C(C(N)=O)C(=O)[C@@]2(O)C(O)=C3C(=O)c4c(cc5cc(N)ccc5c4O)C[C@H]3C[C@@H]12" next?
Reply: > 32 µg/mL

Task item: And then "CCCNCc1ccc2cc3c(c(O)c2c1)C(=O)C1=C(O)[C@]2(O)C(=O)C(C(N)=O)=C(O)[C@@H](N(C)C)[C@@H]2C[C@@H]1C3" , what is it?
Reply: 32 µg/mL

Task item: Also "CN(C)c1cccc2c(O)c3c(cc12)C[C@H]1C[C@H]2[C@H](N(C)C)C(O)=C(C(N)=O)C(=O)[C@@]2(O)C(O)=C1C3=O" , if possible.
Reply: > 32 µg/mL

Task item: Param item: "CCCNc1c2c(c(O)c3cc(CN4CCC4)ccc13)C(=O)C1=C(O)[C@]3(O)C(=O)C(C(N)=O)=C(O)[C@@H](N(C)C)[C@@H]3C[C@@H]1C2"
Reply: > 32 µg/mL

Task item: Can you handle "CN(C)c1c2c(c(O)c3cc(CN4CCCC4)ccc13)C(=O)C1=C(O)[C@]3(O)C(=O)C(C(N)=O)=C(O)[C@@H](N(C)C)[C@@H]3C[C@@H]1C2" next?
Reply: > 32 µg/mL

Task item: What about this compound? "CCCOc1c2c(c(O)c3cc(CN4CCC4)ccc13)C(=O)C1=C(O)[C@]3(O)C(=O)C(C(N)=O)=C(O)[C@@H](N(C)C)[C@@H]3C[C@@H]1C2"
Reply: 32 µg/mL

Task item: Next entry: "CCCN(CCC)c1c2c(c(O)c3cc(CN4CCC4)ccc13)C(=O)C1=C(O)[C@]3(O)C(=O)C(C(N)=O)=C(O)[C@@H](N(C)C)[C@@H]3C[C@@H]1C2"
Reply: > 32 µg/mL

Task item: Now give it for "CN(C)[C@@H]1C(O)=C(C(N)=O)C(=O)[C@@]2(O)C(O)=C3C(=O)c4c(cc5ccc(CN6CC(F)C6)cc5c4O)C[C@H]3C[C@@H]12" too.
Reply: > 32 µg/mL
